Source of measurements: patent US4005076A

Recorded remaining activity at 100 µg values for a group of compounds are listed next.
# Assay Target: mouse embryo RNA-polymerase I (ME-RNA-P1) (Mus musculus, UniProt O35134+P70700)
# Construct: mouse embryo RNA-polymerase I (ME-RNA-P1); endogenous in cells; host or cells: mouse embryo cells
# Protocol Text: effect on mouse embryo RNA-polymerase I
# Type: biochemical
# Run Conditions: 100μg; Single Stranded Calf-Thymus DNA; read-out: % Control Activity of ME-RNA-P1 at 100μg

Compound: CO[C@H]1/C=C/O[C@@]2(C)Oc3c(C)c(O)c4c(c3C2=O)C(=O)C=C(NC(=O)/C(C)=C\C=C\[C@H](C)[C@H](O)[C@@H](C)[C@@H](O)[C@@H](C)[C@H](OC(C)=O)[C@@H]1C)C4=O
remaining activity at 100 µg (%): 90
//
Compound: COC1C=COC2(C)Oc3c(C)c(O)c4c(c3C2=O)C2(C=C(NC(=O)C(C)=CC=CC(C)C(O)C(C)C(O)C(C)C(OC(C)=O)C1C)C4=O)OCC(=O)O2 (stereo not shown)
remaining activity at 100 µg (%): 75
//
Compound: COC1C=COC2(C)Oc3c(C)c(O)c4c(O)c(cc(OCC(=O)O)c4c3C2=O)NC(=O)C(C)=CC=CC(C)C(O)C(C)C(O)C(C)C(OC(C)=O)C1C (stereo not shown)
remaining activity at 100 µg (%): 85
//
Compound: CO[C@H]1/C=C/O[C@@]2(C)Oc3c(C)c(O)c4c(O)c(cc(O)c4c3C2=O)NC(=O)/C(C)=C\C=C\[C@H](C)[C@H](O)[C@@H](C)[C@@H](O)[C@@H](C)[C@H](OC(C)=O)[C@@H]1C
remaining activity at 100 µg (%): 106

###

# System: mouse embryo DNA-polymerase II (ME-DNA-P2)
# Protocol Text: effect on mouse embryo DNA-polymerase II
# Assay type: biochemical
# Run Conditions: 10μg; activated Calf-Thymus DNA

Compound: COC1C=COC2(C)Oc3c(C)c(O)c4c(O)c(c(C=NNc5ccc([N+](=O)[O-])cc5[N+](=O)[O-])c(O)c4c3C2=O)NC(=O)C(C)=CC=CC(C)C(O)C(C)C(O)C(C)C(OC(C)=O)C1C (stereo not drawn)
% Control Activity of ME-DNA-P2 at 10μg (%): 83
--
Compound: COC1C=COC2(C)Oc3c(C)c(O)c4c(O)c(c(C=NN5CCN(C)CC5)c(O)c4c3C2=O)NC(=O)C(C)=CC=CC(C)C(O)C(C)C(O)C(C)C(OC(C)=O)C1C (stereo not drawn)
% Control Activity of ME-DNA-P2 at 10μg (%): 96
--
Compound: CO[C@H]1/C=C/O[C@@]2(C)Oc3c(C)c(O)c4c(c3C2=O)C(=O)C=C(NC(=O)/C(C)=C\C=C\[C@H](C)[C@H](O)[C@@H](C)[C@@H](O)[C@@H](C)[C@H](OC(C)=O)[C@@H]1C)C4=O
% Control Activity of ME-DNA-P2 at 10μg (%): 94
--
Compound: COC1C=COC2(C)Oc3c(C)c(O)c4c(c3C2=O)C2(C=C(NC(=O)C(C)=CC=CC(C)C(O)C(C)C(O)C(C)C(OC(C)=O)C1C)C4=O)OCC(=O)O2 (stereo not drawn)
% Control Activity of ME-DNA-P2 at 10μg (%): 97
--
Compound: CO[C@H]1/C=C/O[C@@]2(C)Oc3c(C)c(O)c4c(O)c(cc(O)c4c3C2=O)NC(=O)/C(C)=C\C=C\[C@H](C)[C@H](O)[C@@H](C)[C@@H](O)[C@@H](C)[C@H](OC(C)=O)[C@@H]1C
% Control Activity of ME-DNA-P2 at 10μg (%): 100
--
Compound: COC1C=COC2(C)Oc3c(C)c(O)c4c(O)c(cc(OCC(=O)O)c4c3C2=O)NC(=O)C(C)=CC=CC(C)C(O)C(C)C(O)C(C)C(OC(C)=O)C1C (stereo not drawn)
% Control Activity of ME-DNA-P2 at 10μg (%): 46
